meta.source: PubChem BioAssay (EPA / NIEHS)

read-out: DNA damage-inducible transcript 3 (DDIT3), DDIT3 (gene 1649); assay: LTEA_HepaRG_DDIT3: Life Technologies and Expression Analysis (LTEA) Assay for DNA damage-inducible transcript 3 (DDIT3) using HepaRG (AID 2283488); conditions: mRNA level, 48 h; actives raise or lower the signal
Active and inactive are the calls of the source. Rule for the calls: active = hit-call score of the fitted dose curve at least 0.9, where 1 is the maximum; inactive = score below 0.9.
Mark one answer only. Choices: 1 (yes) = active, 0 (no) = inactive

Here are 4 compounds together with their reported answers.
CCCSP(=O)(OCC)SCCC
0 (no)
CCOC(=O)COc1cc(-c2nn(C)c(OC(F)F)c2Cl)c(F)cc1Cl
0 (no)
CCCCOC(=O)[C@@H](C)Oc1ccc(Oc2ccc(C#N)cc2F)cc1
0 (no)
CCOP(=O)(OCC)Oc1cc(C)nc(C(C)C)n1
0 (no)

Which outcome was entered for the compound O=C(O)c1cc(Oc2ccc(C(F)(F)F)cc2Cl)ccc1[N+](=O)[O-] in this test?
0 (no)

Which outcome was entered for the compound CCOP(=S)(OCC)SCCSCC in this test?
0 (no)

Which outcome was entered for the compound CCCCN(CC)c1c([N+](=O)[O-])cc(C(F)(F)F)cc1[N+](=O)[O-] in this test?
0 (no)

Which outcome was entered for the compound CON=C(C(=O)OC)c1ccccc1CON=C(C)c1cccc(C(F)(F)F)c1 in this test?
0 (no)

Which outcome was entered for the compound CN1COCN(Cc2cnc(Cl)s2)C1=N[N+](=O)[O-] in this test?
0 (no)

Which outcome was entered for the compound C[Si](Cn1cncn1)(c1ccc(F)cc1)c1ccc(F)cc1 in this test?
1 (yes)

###

assay: BSK_4H_Eotaxin3: BioMAP Diversity Plus: 4H Assay for Eotaxin 3 Biomarker Activity (AID 2283000); details: primary human endothelial cells (HUVEC); actives raise or lower the signal
Active and inactive are the calls of the source. How the source made its calls: active means hit-call score of the fitted dose curve at least 0.9, where 1 is the maximum; inactive means score below 0.9.
Mark one answer only. Choices: Yes for active, No for inactive

Here are 2 compounds together with their reported answers.
CCCOCC(=Nc1ccc(Cl)cc1C(F)(F)F)n1ccnc1
Yes
CCC(=O)Nc1ccc(Cl)c(Cl)c1
No

Which outcome was entered for the compound CCOP(=S)(OCC)Oc1cc(C)nc(C(C)C)n1 in this test?
No

###

molecular target: Hypoxia-inducible factor 1-alpha (Homo sapiens); test: ATG_HIF1a_CIS: Attagene CIS-FACTORIAL HepG2 Assay for human Hypoxia Inducible Factor 1 (HIF1A) (AID 2282951); conditions: HepG2 Attagene cis-factorial HIF1a reporter transcription; actives raise or lower the signal
The source made the active and inactive calls. How the source made its calls: active means hit-call score of the fitted dose curve at least 0.9, where 1 is the maximum; inactive means score below 0.9.
Mark one answer only. Choices: Y = active, N = inactive

Which outcome was entered for the compound CCCOc1nn(C(=O)NS(=O)(=O)c2ccccc2C(=O)OC)c(=O)n1C in this test?
N

Which outcome was entered for the compound CCOP(=S)(Oc1cnc(C(C)(C)C)nc1)OC(C)C (stereo not drawn) in this test?
N

Which outcome was entered for the compound CCCCN(CC)c1c([N+](=O)[O-])cc(C(F)(F)F)cc1[N+](=O)[O-] in this test?
N

Which outcome was entered for the compound CN1COCN(Cc2cnc(Cl)s2)C1=N[N+](=O)[O-] in this test?
N

Which outcome was entered for the compound CCOP(=O)(SC(C)CC)N1CCSC1=O (stereo not drawn) in this test?
N

###

Read-out: Cytochrome P450 2C19 (Homo sapiens)
Assay: LTEA_HepaRG_CYP2C19: Life Technologies and Expression Analysis (LTEA) Assay for CYP2C19 using HepaRG (AID 2283482)
Details: mRNA level, 48 h; actives raise or lower the signal
Method: LTEA_HepaRG is a cell based, multiplexed-readout assay that uses HepaRG, a human liver cell line, with measurements taken at 48 hours after chemical dosing on a 96-well plate.LTEA_HepaRG_CYP2C19 is one of 102 assay component(s) measured in the LTEA HepaRG cell culture assay. It is a marker of NR mediated metabolism.Data from the assay component LTEA_HepaRG_CYP2C19 was analyzed into 1 endpoint. […]
The source made the active and inactive calls. Rule for the calls: active = hit-call score of the fitted dose curve at least 0.9, where 1 is the maximum; inactive = score below 0.9.
Mark one answer only. Choices: TRUE for active, FALSE for inactive

O=[N+]([O-])c1cc(C(F)(F)F)c(Cl)c([N+](=O)[O-])c1Nc1ncc(C(F)(F)F)cc1Cl
TRUE
CCOC(=O)COc1cc(-c2nn(C)c(OC(F)F)c2Cl)c(F)cc1Cl
TRUE
C#CC(C)(C)NC(=O)c1cc(Cl)cc(Cl)c1
TRUE
CNC(=O)ON=C(C)SC
FALSE
CNc1cnn(-c2cccc(C(F)(F)F)c2)c(=O)c1Cl
TRUE

Okay, now this compound:
Which outcome was entered for the compound CSC1=N[C@@](C)(c2ccccc2)C(=O)N1Nc1ccccc1 in this test?
TRUE

###

assay: ATG_PBREM_CIS: Attagene CIS-FACTORIAL HepG2 Assay for human Phenobarbital-responsive Enhancer Module (PBREM) (AID 2282955); settings: HepG2 PBREM cis-reporter, Attagene multiplexed transcription; actives raise or lower the signal
Activity calls are given as the source filed them. Rule for the calls: active = hit-call score of the fitted dose curve at least 0.9, where 1 is the maximum; inactive = score below 0.9.
Mark one answer only. Choices: active, inactive

Here are 3 compounds together with their reported answers.
CSc1nc(NC(C)C)nc(NC(C)C)n1
inactive
CNc1cnn(-c2cccc(C(F)(F)F)c2)c(=O)c1Cl
inactive
CC(C)N(C(=O)SCC(Cl)=C(Cl)Cl)C(C)C
inactive

Which outcome was entered for the compound CCOP(=S)(Oc1cnc(C(C)(C)C)nc1)OC(C)C (centres undefined) in this test?
active

Which outcome was entered for the compound CCC(=NOC/C=C/Cl)C1=C(O)CC(C2CCOCC2)CC1=O (centres undefined) in this test?
inactive

Which outcome was entered for the compound COc1cc(OC)nc(Sc2cccc(Cl)c2C(=O)O)n1 in this test?
inactive

Which outcome was entered for the compound C[N+]1(C)CCCCC1 in this test?
inactive

Which outcome was entered for the compound CCCCN(CC)c1c([N+](=O)[O-])cc(C(F)(F)F)cc1[N+](=O)[O-] in this test?
active

Which outcome was entered for the compound CC(C)[C@H](C(=O)O[C@H](C#N)c1cccc(Oc2ccccc2)c1)c1ccc(Cl)cc1 in this test?
active

Which outcome was entered for the compound CCOC(=O)COc1cc(-c2nn(C)c(OC(F)F)c2Cl)c(F)cc1Cl in this test?
inactive

Which outcome was entered for the compound CCOP(=S)(OCC)Oc1cc(C)nc(C(C)C)n1 in this test?
active

Which outcome was entered for the compound CSc1nnc(C(C)(C)C)c(=O)n1N in this test?
inactive

Which outcome was entered for the compound CCOP(=O)(SC(C)CC)N1CCSC1=O (centres undefined) in this test?
inactive

Which outcome was entered for the compound C=C(C)[C@H]1Cc2c(ccc3c2O[C@@H]2COc4cc(OC)c(OC)cc4[C@@H]2C3=O)O1 in this test?
active

Which outcome was entered for the compound CCCCOC(=O)[C@@H](C)Oc1ccc(Oc2ccc(C#N)cc2F)cc1 in this test?
inactive

Which outcome was entered for the compound CON=C(C(=O)OC)c1ccccc1CON=C(C)c1cccc(C(F)(F)F)c1 in this test?
inactive

Which outcome was entered for the compound Cc1ccn2nc(S(=O)(=O)Nc3c(F)cccc3F)nc2n1 in this test?
inactive

Which outcome was entered for the compound CCCSP(=O)(OCC)Oc1ccc(Br)cc1Cl (centres undefined) in this test?
inactive

Which outcome was entered for the compound CC[C@H](C)[C@H]1O[C@]2(C=C[C@@H]1C)C[C@@H]1C[C@@H](C/C=C(\C)[C@@H](O[C@H]3C[C@H](OC)[C@@H](O[C@H]4C[C@H](OC)[C@@H](NC)[C@H](C)O4)[C@H](C)O3)[C@@H](C)/C=C/C=C3\CO[C@@H]4[C@H](O)C(C)=C[C@@H](C(=O)O1)[C@]34O)O2 in this test?
inactive

###

read-out: Cytochrome P450 3A7 (Homo sapiens) (UniProt P24462); experiment: LTEA_HepaRG_CYP3A7: Life Technologies and Expression Analysis (LTEA) Assay for CYP3A7 using HepaRG (AID 2283492); settings: mRNA level, 48 h; actives raise or lower the signal
Sequence (P24462 whole entry, looked up): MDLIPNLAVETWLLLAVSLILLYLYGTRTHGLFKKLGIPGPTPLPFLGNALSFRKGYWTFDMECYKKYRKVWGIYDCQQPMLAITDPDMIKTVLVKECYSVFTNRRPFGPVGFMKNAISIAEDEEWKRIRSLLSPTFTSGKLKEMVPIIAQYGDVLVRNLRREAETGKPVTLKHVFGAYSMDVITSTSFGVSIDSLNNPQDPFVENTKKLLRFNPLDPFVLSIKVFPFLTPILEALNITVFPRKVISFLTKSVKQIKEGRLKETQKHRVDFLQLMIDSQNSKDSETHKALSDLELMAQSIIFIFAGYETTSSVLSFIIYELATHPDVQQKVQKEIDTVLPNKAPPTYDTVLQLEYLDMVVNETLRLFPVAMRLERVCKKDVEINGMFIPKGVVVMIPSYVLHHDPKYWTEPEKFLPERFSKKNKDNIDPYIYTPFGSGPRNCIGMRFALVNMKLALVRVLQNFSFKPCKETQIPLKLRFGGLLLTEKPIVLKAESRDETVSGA
The source made the active and inactive calls. How the source made its calls: active means hit-call score of the fitted dose curve at least 0.9, where 1 is the maximum; inactive means score below 0.9.
Mark one answer only. Choices: t = active, f = inactive

Here are 5 compounds together with their reported answers.
CCNc1nc(Cl)nc(NC(C)(C)C#N)n1
t
CN(C)NC(=O)CCC(=O)O
f
CC(COc1ccc(Oc2ccccc2)cc1)Oc1ccccn1 (stereo unspecified)
f
Cc1cc(C2CC2)nc(Nc2ccccc2)n1
f
CSC1=N[C@@](C)(c2ccccc2)C(=O)N1Nc1ccccc1
t

Which outcome was entered for the compound CCCSP(=O)(OCC)SCCC in this test?
f

###

assay: BSK_hDFCGF_SRB: Viability Assessment in the BioMAP Diversity Plus: hDFCGF Assay (AID 2283061); conditions: primary human foreskin fibroblasts;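 note: cells exposed to compound for 24 h before the read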
Activity calls are given as the source filed them. How the source made its calls: active means hit-call score of the fitted dose curve at least 0.9, where 1 is the maximum; inactive means score below 0.9.
MEASUREMENT_LABEL: outcome

Cc1nn(-c2cc(NS(C)(=O)=O)c(Cl)cc2Cl)c(=O)n1C(F)F
inactive
C[Si](Cn1cncn1)(c1ccc(F)cc1)c1ccc(F)cc1
inactive
CNC(=O)Oc1cccc2c1OC(C)(C)O2
inactive

###

read-out: Nuclear factor erythroid 2-related factor 2 (Homo sapiens); test: LTEA_HepaRG_NFE2L2: Life Technologies and Expression Analysis (LTEA) Assay for Nuclear factor erythroid 2-related factor 2 (NFE2L2) Transcription Factor using HepaRG (AID 2283527); details: mRNA level, 48 h; actives raise or lower the signal;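 note: TaqMan qRT-PCR transcript level normalised to ACTB GAPDH and POLR2A housekeeping genes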
Calls of active or inactive are those of the source. How the source made its calls: active means hit-call score of the fitted dose curve at least 0.9, where 1 is the maximum; inactive means score below 0.9.
Mark one answer only. Choices: Y (active), N (inactive)

Here are 5 compounds together with their reported answers.
CCOP(=O)(SC(C)CC)N1CCSC1=O (stereo not drawn)
N
C#CCC1=C(C)C(OC(=O)C2C(C=C(C)C)C2(C)C)CC1=O (stereo not drawn)
N
O=[N+]([O-])c1cc(C(F)(F)F)c(Cl)c([N+](=O)[O-])c1Nc1ncc(C(F)(F)F)cc1Cl
N
CSc1nc(NC(C)C)nc(NC(C)C)n1
N
Cc1cc(C2CC2)nc(Nc2ccccc2)n1
N

Which outcome was entered for the compound CCc1cccc(C)c1N(C(=O)CCl)C(C)COC (stereo not drawn) in this test?
N
